Each recorded value in this set is attributed to ChEMBL document CHEMBL5150062.

testSystem: cGMP-specific 3',5'-cyclic phosphodiesterase (Homo sapiens, UniProt O76074)
experimentalDetails: Inhibition of human PDE5 using [3H]cGMP as substrate at 1 uM incubated for 10 mins by liquid scintillation counter analysis relative to control
quantityKind: inhibition (%)

smilesrecord=CN1CCN(S(=O)(=O)c2ccc(Nc3nc(NCc4ccccc4)c4ncn(C)c4n3)cc2)CC1 endpointresult=97.3
smilesrecord=Cn1cnc2c(NCc3ccccc3)nc(Nc3ccc(S(N)(=O)=O)cc3)nc21 endpointresult=96.5
smilesrecord=CN1CCN(S(=O)(=O)c2cccc(Nc3nc(NCc4ccccc4)c4ncn(C)c4n3)c2)CC1 endpointresult=69
smilesrecord=COc1cc2nc(Nc3cccc(S(N)(=O)=O)c3)nc(NC3CCN(Cc4ccccc4)CC3)c2cc1OC endpointresult=93.7
smilesrecord=CC(C)CNc1nc(Nc2cccc(S(=O)(=O)N3CCN(C)CC3)c2)nc2ccccc12 endpointresult=97.3
